Assay: NCI Yeast Anticancer Drug Screen. Data for the sgs1 mgt1 strain (AID 161);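 further: 0% = growth of cultures given vehicle only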
Settings: S. cerevisiae sgs1 mgt1 strain, at 50.0 µM (retest, dose inferred, filed as 5.0)
The panel holds about 79,000 compounds, 15% with a hit somewhere; the sample as a whole holds those more often. The source made the active and inactive calls. No stated cut-off is given here; in the data, active means growth inhibition above about 70%; inactive means the rest.
Hi! Could you answer with just one of these? true (1) (active), false (0) (inactive)

# example entries with known answers
Hey, what did the test say about CC(=O)O/C=C\COC(C)=O ?
false (0)

Hey, what did the test say about CCOC(=O)NC(c1ccc(C(NC(=O)OCC)P(=O)(O)NC23CC4CC(CC(C4)C2)C3)cc1)P(=O)(O)NC12CC3CC(CC(C3)C1)C2 (stereo unspecified) ?
false (0)

Further cases:
Hey, what did the test say about ON=C1c2ccccc2-c2ccccc21 ?
false (0)

Hey, what did the test say about Cn1c(C(C)(C)OC(=O)Oc2ccccc2)cnc1[N+](=O)[O-] ?
false (0)
